Numbers sourced from PubChem BioAssay AID463173.

# Test system: Wild type
# assay-text: S. aureus survival, RN4220 and DeltatarO strains – OD600, teichoic acid synthesis inhibitors, primary screen (AID 463173)
# stated-conditions: S. aureus RN4220 wild type/DeltatarO growth, OD600, 18 h, active compounds read low, screened at 18.75 µg/mL (by protocol)
In all, about 52,000 compounds went through this assay and about 1,700 (3.3%) were called active. The sample holds actives, similar compounds and a random draw of the others, so the mix is not that of the screen.
Just a reminder that ties go to No: only survival strictly below 60% counts as Yes.

Answered cases to consult:
CCn1ccc2cc(S(=O)(=O)N3CCCN(C(=O)Nc4ccc(C)cc4Cl)CC3)ccc21 :: No
CCc1ccccc1NC(=O)CN1C(=O)COc2ccc(S(=O)(=O)Nc3ccccc3)cc21 :: No
Cc1ccc2c(=O)c(C(=O)c3ccccc3)cn(CC(=O)Nc3ccccc3C)c2n1 :: No
Cc1ccc(NC2=NCC(=O)N2C2CCCC2)cc1C :: No
CCC(=O)Nc1ccc(CC)cc1-c1nc2ccccc2n(CC(=O)c2ccc(OC)cc2)c1=O :: No
CC1=C(c2ccc(C)cc2)S(=O)(=O)N(Cc2ccc(C(=O)Nc3ccccc3C)cc2)C1=O :: No
COc1ccc(CNC(=O)c2ccc3c(c2)NC(=O)C(CS(=O)(=O)Cc2ccccc2Cl)N3)cc1 (stereo unspecified) :: Yes
COC(=O)c1ccc(Cn2c(SCc3ccccc3F)nc3ccncc32)cc1 :: No
CCOc1ccc(NCc2n[nH]c(=S)n2-c2ccc(C)cc2)cc1 :: No
CCc1nn(CC(=O)NC(C)c2ccccc2)c(=O)c2cc3sccc3n12 (stereo unspecified) :: No

input: Given the entry Cc1ccc(OCCn2c(CNc3cccc(C)c3)nc3ccccc32)cc1 , would its reported survival be below 60%?
output: Yes
